# System: primary human T-cells
# Procedure Text: Proliferation assay after 5 days (CellTiter-Glo, CD3 stimulation; PBS counter screen)
# Type: cell-based
# Condition Summary: Homo sapiens, T-cell, 120 h, CD3 stimulation, 5 days; normalized to reference compound A1 as stimulator control = 100%, DMSO neutral control; read-out: Emax proliferation (% activation)
Class true (1): Emax at least 90%. Class false (0): Emax below 90%.

Ask: For this compound, is measured Emax 90% or higher? COC(=O)N1CC2CC(c3nc(-c4cc5c(cc4F)S(=O)(=O)C[C@H](N)C(=O)N5Cc4ccc(Cl)cc4)no3)(C2)C1 [Example 317]
Result: true (1)

Further cases:
Ask: For this compound, is measured Emax 90% or higher? COC(=O)N1CC2(c3nnc(-c4cc5c(cc4F)S(=O)(=O)C[C@H](N)C(=O)N5Cc4ccc(Cl)cc4)o3)CC1CO2 (stereo partly drawn) [Example 120]
Result: true (1)

Ask: Please do the same for N[C@H]1CS(=O)(=O)c2ccc(-c3nnc(C4(N)CCCC4)o3)cc2N(Cc2ccc(OC(F)(F)F)cc2)C1=O [Example 414] as well.
Result: false (0)

Ask: Please do the same for CN(c1nnc(-c2ccc3c(c2)N(Cc2ccc(Cl)cc2)C(=O)[C@@H](N)CS3(=O)=O)o1)C1CC1 [Example 394] as well.
Result: true (1)

Ask: Please do the same for CC(C)(C)c1nnc(-c2cc3c(cc2Cl)S(=O)(=O)C[C@H](N)C(=O)N3Cc2ccc(Cl)cc2)o1 [Example 523] as well.
Result: false (0)

Ask: Please do the same for N[C@H]1CS(=O)(=O)c2cc(F)c(-c3nnc(C4CCOCC4)o3)cc2N(Cc2ccc(Cl)cc2)C1=O [Example 82] as well.
Result: true (1)

Ask: Please do the same for N[C@H]1CS(=O)(=O)c2cc(F)c(-c3nnc(C(=O)N4CCC(F)(F)C4)o3)cc2N(Cc2ccc(Cl)cc2)C1=O [Example 117] as well.
Result: false (0)

Ask: Please do the same for CC(Nc1nnc(-c2cc3c(cc2F)S(=O)(=O)C[C@H](N)C(=O)N3Cc2ccc(Cl)cc2)o1)C1CC(F)(F)C1 (stereo partly drawn) [Example 493] as well.
Result: true (1)

Ask: Please do the same for CC(=O)N1CC(c2nnc(-c3cc4c(cc3F)S(=O)(=O)C[C@H](N)C(=O)N4Cc3ccc(Cl)cc3)o2)CC(F)(F)C1 (stereo partly drawn) [Example 162] as well.
Result: false (0)

Ask: Please do the same for CC(C)OCc1nnc(-c2cc3c(cc2F)S(=O)(=O)C[C@H](N)C(=O)N3Cc2ccc(Cl)cc2)o1 [Example 89] as well.
Result: true (1)

Ask: Please do the same for N[C@H]1CS(=O)(=O)c2cc(F)c(-c3noc(N4CCOC5CC54)n3)cc2N(Cc2ccc(Cl)cc2)C1=O (stereo partly drawn) [Example 192] as well.
Result: true (1)

Ask: Please do the same for CC(C)(C)c1nnc(-c2cc3c(cc2F)S(=O)(=O)C[C@H](N)C(=O)N3Cc2ccc(F)c(F)c2)o1 [Example 246] as well.
Result: true (1)

Ask: Please do the same for COCCN1CCCC(F)(c2nnc(-c3ccc4c(c3)N(Cc3ccc(Cl)cc3)C(=O)[C@@H](N)CS4(=O)=O)o2)C1 (stereo partly drawn) [Example 386] as well.
Result: true (1)

###

# System: primary human T-cells
log10 EC50 reference
Heads up: the numbers are on a log10 scale; they represent EC50 in µM.

Ask: // returns reported log10 EC50 for input N[C@H]1CS(=O)(=O)c2cc(F)c(-c3nnc(C4CCCC(F)(F)C4)o3)cc2N(Cc2ccc(Cl)cc2)C1=O (stereo partly shown) [Example 91]
Result: -1.47

Ask: Please do the same for Cc1ccc(OC(=O)N2CCC(C)(c3nnc(-c4ccc5c(c4)N(Cc4ccc(Cl)cc4)C(=O)[C@@H](N)CS5(=O)=O)o3)CC2)cn1 [Example 383] as well.
Result: -0.07

Further cases:
Ask: // returns reported log10 EC50 for input CCn1ccc(-c2cc3c(cc2F)S(=O)(=O)C[C@H](N)C(=O)N3Cc2ccc(Cl)cc2)n1 [Example 280]
Result: -0.07

Ask: Please do the same for CC(C)(C)NC(=O)c1nc(-c2cc3c(cc2F)S(=O)(=O)C[C@H](N)C(=O)N3Cc2ccc(Cl)cc2)no1 [Example 293] as well.
Result: 0.52

Ask: Please do the same for CC(C)(C)c1nnc(-c2cc3c(cc2F)S(=O)(=O)C[C@H](N)C(=O)N3Cc2ccc(Cl)nc2)o1 [Example 237] as well.
Result: -0.28

Ask: Please do the same for N#CC1(c2nnc(-c3cc4c(cc3F)S(=O)(=O)C[C@H](N)C(=O)N4Cc3ccc(Cl)cc3)o2)CC1 [Example 118] as well.
Result: -0.64

Ask: Please do the same for CC(C)(C)c1noc(-c2cc3c(cc2F)S(=O)(=O)C[C@H](N)C(=O)N3Cc2ccc(Cl)cc2)n1 [Example 43] as well.
Result: 0.37

###

# System: primary human T-cells
# Procedure Text: Proliferation assay after 5 days (CellTiter-Glo, CD3 stimulation; PBS counter screen)
# Assay type: cell-based
# Condition Summary: Homo sapiens, T-cell, 120 h, primary human T-cells, CD3 stimulation, CellTiter-Glo after 5 days; EC50 of fitted sigmoidal curve; read-out: Tcell Proliferation CD3 EC50
Endpoint Label: log10 EC50 (log10 of the value in nM)
Heads up: the numbers are on a log10 scale; they represent EC50 in nM.

Ask: // returns reported log10 EC50 for input "N[C@H]1CS(=O)(=O)c2cc(F)c(-c3nnc(N4CC5COCC(C4)C5(F)F)o3)cc2N(Cc2ccc(Cl)cc2)C1=O"
Result: 2.66

###

# System: primary human T-cells
# Procedure Text: Proliferation assay after 5 days (CellTiter-Glo, CD3 stimulation; PBS counter screen)
# Type: cell-based
# Condition Summary: Homo sapiens, T-cell, 120 h, primary human T-cells, CD3 stimulation, CellTiter-Glo after 5 days; EC50 of fitted sigmoidal curve; read-out: Tcell Proliferation CD3 EC50
Endpoint Label: pEC50
Lab note — pEC50 values are minus log10 of concentrations in M.

Recorded pEC50, per entry:
Ask: // returns reported pEC50 for input CN1CC(c2nnc(-c3ccc4c(c3)N(Cc3ccc(OC(F)(F)F)cc3)C(=O)[C@@H](N)CS4(=O)=O)o2)CC(F)(F)C1 (stereo partly drawn) [Example 421]
Result: 5.61

Ask: Please do the same for CC(C)(C)n1nnc(-c2ccc3c(c2)N(Cc2ccc(Cl)cc2)C(=O)[C@@H](N)CS3(=O)=O)n1 [Example 36] as well.
Result: 6.39

Ask: Please do the same for CCc1noc(-c2cc3c(cc2F)S(=O)(=O)C[C@H](N)C(=O)N3Cc2ccc(Cl)cc2)n1 [Example 41] as well.
Result: 5.03

Ask: Please do the same for CC(C)(N)c1nnc(-c2cc3c(cc2F)S(=O)(=O)C[C@H](N)C(=O)N3Cc2ccc(Cl)cc2)o1 [Example 69] as well.
Result: 5.32

Ask: Please do the same for N[C@H]1CS(=O)(=O)c2cc(F)c(-c3nnc(CC4CCOCC4)o3)cc2N(Cc2ccc(Cl)cc2)C1=O [Example 78] as well.
Result: 5.96

Further cases:
Ask: // returns reported pEC50 for input CC(C)(C)c1nnc(-c2cc3c(cc2F)S(=O)(=O)C[C@H](N)C(=O)N3Cc2ccc(OCC(F)(F)F)cc2)o1 [Example 243]
Result: 6.61

Ask: Please do the same for N[C@H]1CS(=O)(=O)c2cc(F)c(-c3noc(C(N)(c4ccc(F)cc4)C(F)(F)F)n3)cc2N(Cc2ccc(Cl)cc2)C1=O (stereo partly drawn) [Example 300] as well.
Result: 6.90

Ask: Please do the same for N[C@H]1CS(=O)(=O)c2cc(F)c(-c3nnc(C4CCC(F)(F)CC4)o3)cc2N(Cc2ccc(Cl)cc2)C1=O [Example 73] as well.
Result: 6.90

Ask: Please do the same for COC(=O)N1CC(c2nnc(-c3cc4c(cc3F)S(=O)(=O)C[C@H](N)C(=O)N4Cc3ccc(Cl)cc3)o2)C1 [Example 172] as well.
Result: 5.53

Ask: Please do the same for N[C@H]1CS(=O)(=O)c2cc(F)c(-c3noc(C(=O)NCC(F)(F)F)n3)cc2N(Cc2ccc(Cl)cc2)C1=O [Example 291] as well.
Result: 6.35

Ask: Please do the same for COC(F)(c1nc(-c2cc3c(cc2F)S(=O)(=O)C[C@H](N)C(=O)N3Cc2ccccc2)no1)C(F)(F)F (stereo partly drawn) [Example 351] as well.
Result: 6.95

Ask: Please do the same for N[C@H]1CS(=O)(=O)c2ccc(-c3nnc(N4CCOC(F)(F)C4)o3)cc2N(Cc2ccc(Cl)cc2)C1=O [Example 391] as well.
Result: 6.68

Ask: Please do the same for CC(C)(C)n1nnc(-c2cc3c(cc2F)S(=O)(=O)C[C@H](NC(=O)CN)C(=O)N3Cc2ccc(Cl)cc2)n1 [Example 29] as well.
Result: 7.03

Ask: Please do the same for N[C@H]1CS(=O)(=O)c2cc(F)c(-c3noc(N4CCOC(C(F)(F)F)C4)n3)cc2N(Cc2ccc(Cl)cc2)C1=O (stereo partly drawn) [Example 193] as well.
Result: 7.67

Ask: Please do the same for COC(F)(c1nc(-c2cc3c(cc2F)S(=N)(=O)C[C@H](N)C(=O)N3Cc2ccc(Cl)cc2)no1)C(F)(F)F (stereo partly drawn) [Example 515] as well.
Result: 5.31

Ask: Please do the same for CCc1cn(-c2cc3c(cc2F)S(=O)(=O)C[C@H](N)C(=O)N3Cc2ccc(Cl)cc2)nn1 [Example 3] as well.
Result: 5.37

Ask: Please do the same for CC(C)(C)c1nnc(-c2ccc3c(c2)N(Cc2ccc(OC4CC4)cc2)C(=O)[C@@H](N)CS3(=O)=O)o1 [Example 435] as well.
Result: 6.17

Ask: Please do the same for N[C@H]1CS(=O)(=O)c2ccc(-c3nnc(NC4CC(F)(F)C4)o3)cc2N(Cc2ccc(Cl)cc2)C1=O [Example 397] as well.
Result: 5.66

// provenance: patent US20240368150A1
